Tested on: NCI-H322M lung
assay.remarks: NCI-60 one-dose screen, 48 h
test.parameters: 10 µM unless noted
This is part of a sample that, as a whole, favours compounds with a hit. Of some 83,000 tested, about 20% had one in any assay. Activity calls are given as the source filed them. How the source made its calls: active means growth percent below 10; inactive means the rest.
Reply using exactly one outcome from 1 (active), 0 (inactive)

Here's what some known entries look like.
Tell me the recorded outcome of this test for COc1cc(C2CC(c3ccc(C)cc3)=NN2C(C)=O)ccc1Oc1ccnc2cc(Cl)ccc12 (stereo not given) . 0

Tell me the recorded outcome of this test for `COc1ccc(-c2c(N)noc2-c2cc(OC)c3c(c2)OCCO3)cc1` . 0

Tell me the recorded outcome of this test for `COc1ccc(-c2csc(NC(=O)c3cc(OC)c(OC)c(OC)c3)n2)cc1` . 0

Tell me the recorded outcome of this test for `O=C(/C(=C/c1ccc([N+](=O)[O-])cc1)c1ccccc1)c1ccccc1` . 0

Tell me the recorded outcome of this test for `COC(=O)[C@]12CC[C@@H](C)[C@H](C)[C@@H]1C1=CC[C@@H]3[C@@]4(C)C=C(O)C(=O)[C@@]5(C)COC(=C54)C[C@@]3(C)[C@]1(C)CC2` . 1

Tell me the recorded outcome of this test for `CC(=O)c1ccc2c3c(n(C)c2c1)CCCC3` . 0

Tell me the recorded outcome of this test for `CCCCCCCCCCCCNc1ncnc2[nH]ncc12` . 0

Tell me the recorded outcome of this test for O=C1Nc2ccccc2C12Nc1cc(Cl)ccc1S2 (stereo not given) . 0

Tell me the recorded outcome of this test for `Cc1cc(C)c(OC(=O)CSc2nc3ccccc3c(=O)n2CCc2ccccc2)cc1C` . 0

Consider now this further compound.
Tell me the recorded outcome of this test for Oc1ccc(Cc2ccc(O)c(C3CC(c4ccc(Cl)cc4)=NN3)c2)cc1C1CC(c2ccc(Cl)cc2)=NN1 (stereo not given) . 1

----------
Test system: IGROV1 ovarian
assay.remarks: NCI-60 one-dose screen, 48 h (100 = growth as untreated, 0 = no growth, -100 = all killed)
test.parameters: 10 µM unless noted
Compounds without any hit were thinned out: in the full panel of roughly 83,000, 20% have a hit.
Answer N if growth is under 90%, and Y if it is 90% or more.

Here's what some known entries look like.
Does the reported growth for `CCC(=O)Nc1ccccc1C#C/C=C\C#Cc1ccccc1C(F)(F)F` fall at or above the 90% mark? N

Does the reported growth for `O=C(c1ccccc1)c1ccco1` fall at or above the 90% mark? Y

Does the reported growth for `Oc1ccccc1/C=N\Nc1ccccc1` fall at or above the 90% mark? N

Does the reported growth for `Clc1ccc(-c2nc(-c3cccs3)no2)c(Cl)c1` fall at or above the 90% mark? N

Others:
Does the reported growth for CC(c1ccccn1)C(C)(O)C(C)c1ccccn1 (stereo not given) fall at or above the 90% mark? Y

Does the reported growth for `Cc1nc(N)[nH]c(=O)c1C` fall at or above the 90% mark? N

Does the reported growth for `Cc1cc(NC(=O)c2ccc(N)cc2)ccc1N=Nc1ccc2c(O)c(N=Nc3ccc(Cl)c(S(=O)(=O)O)c3)c(S(=O)(=O)O)cc2c1` fall at or above the 90% mark? N

Does the reported growth for `CCCCn1c(Cc2ccc(Cl)cc2)nc2cc(OC)c(OC)cc2c1=O` fall at or above the 90% mark? N

Does the reported growth for `Cc1cc(=O)n2n1-c1ccc(Cl)cc1NC(=O)C2` fall at or above the 90% mark? Y

Does the reported growth for `Oc1[nH]c2ccccc2c1/C=c1/ccc2c(c1)N=C(c1cc(F)cc(F)c1)N=2` fall at or above the 90% mark? N

Does the reported growth for `COC(=O)CCC1=C(C)/C(=C/c2[nH]c(-c3ccc[nH]3)cc2OC)N=C1C` fall at or above the 90% mark? N

Does the reported growth for `Cc1cc(NC(=O)Nc2cc(Cl)ccc2C)no1` fall at or above the 90% mark? N

Does the reported growth for `O=[N+]([O-])c1ccc(N/N=C\c2ccccc2[N+](=O)[O-])nc1` fall at or above the 90% mark? Y

Does the reported growth for `Clc1ccc2c(Nc3ccc4oc(NCCN5CCCC5)nc4c3)ccnc2c1` fall at or above the 90% mark? Y

Does the reported growth for CCC(C)CC(C)C(=O)c1c(O)ccn(O)c1=O (stereo not given) fall at or above the 90% mark? N

Does the reported growth for CCC(C)CC(CC)NCCN1CCN(C(CC)CC(C)CC)C1=S (stereo not given) fall at or above the 90% mark? N

Does the reported growth for `O=C(Nc1ccccc1Cl)c1cnc2ccc(C3CCNCC3)cn12` fall at or above the 90% mark? N

Does the reported growth for `Cc1c(C(N)=O)sc2ncn(Cc3ccccc3)c(=O)c12` fall at or above the 90% mark? N

Does the reported growth for `c1ccc(-c2nnc(Nc3nnc(-c4ccccc4)s3)s2)cc1` fall at or above the 90% mark? N

Does the reported growth for `Nc1ccc(S(=O)(=O)Nc2ncccn2)cc1` fall at or above the 90% mark? Y
